# assayed-target: MurD from E.coli (Escherichia coli)
# Sequence (P14900 whole entry): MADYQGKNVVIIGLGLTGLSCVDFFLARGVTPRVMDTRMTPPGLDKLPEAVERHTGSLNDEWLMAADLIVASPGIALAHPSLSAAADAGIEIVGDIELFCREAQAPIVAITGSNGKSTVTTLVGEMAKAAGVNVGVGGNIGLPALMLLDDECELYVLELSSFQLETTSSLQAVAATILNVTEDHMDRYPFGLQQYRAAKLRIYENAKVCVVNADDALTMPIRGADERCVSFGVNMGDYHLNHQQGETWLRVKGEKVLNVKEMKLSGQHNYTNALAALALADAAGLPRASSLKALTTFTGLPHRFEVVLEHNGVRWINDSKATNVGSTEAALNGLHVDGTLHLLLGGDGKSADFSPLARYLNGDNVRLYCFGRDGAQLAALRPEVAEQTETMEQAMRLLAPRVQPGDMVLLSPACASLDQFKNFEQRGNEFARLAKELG
# assay: Inhibition of MurD, colorimetric malachite green orthophosphate detection
# Type: biochemical
# experimental-context: residual activity at 100µM compound
recorded-metric: MurD RA (%)

> print(dat)
                               input.smiles                       assayed.target  recorded.metric  value.observed
1  N#Cc1ccc(COc2ccccc2C=NNS(=O)(=O)Cc2ccccc2)cc1  MurD from E.coli (Escherichia coli)      MurD RA (%)    58 (100µM) %
2  O=C(Nc1ccc(C=NNS(=O)(=O)c2ccc3ccccc3c2)cc1)c1cc([N+](=O)[O-])cc([N+](=O)[O-])c1  MurD from E.coli (Escherichia coli)      MurD RA (%)    78 (100µM) %
3  O=[N+]([O-])c1ccc(S(=O)(=O)Oc2ccccc2C=NNS(=O)(=O)c2ccc3ccccc3c2)cc1  MurD from E.coli (Escherichia coli)      MurD RA (%)             25%
4  O=C(Oc1ccccc1C=NNS(=O)(=O)c1ccc2ccccc2c1)c1cc([N+](=O)[O-])cc([N+](=O)[O-])c1  MurD from E.coli (Escherichia coli)      MurD RA (%)             33%
5  N#Cc1ccc(COc2ccccc2C=NNS(=O)(=O)c2ccccc2[N+](=O)[O-])cc1  MurD from E.coli (Escherichia coli)      MurD RA (%)    86 (100µM) %
6  N#Cc1ccc(COc2ccccc2C=NNS(=O)(=O)c2ccc3ccccc3c2)cc1  MurD from E.coli (Escherichia coli)      MurD RA (%)             27%
7  N#Cc1ccc(COc2ccccc2C=NNS(=O)(=O)Cc2ccccc2F)cc1  MurD from E.coli (Escherichia coli)      MurD RA (%)    39 (100µM) %
8  O=C(Nc1ccc(C=NNS(=O)(=O)c2ccc3ccccc3c2)cc1)c1ccccc1Br  MurD from E.coli (Escherichia coli)      MurD RA (%)             13%

Origin of values: patent EP1845083A2
